B1: FBXO39 (parent)
chain: PSRVHASEVESAVWYVKKFGRYLE

variants of: B1; assay: protein stability index of a GFP-peptide fusion (GPS, HEK-293T) (PSI 1-6); higher = more stable; details: c terminus: a fixed tail appended;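 also: lentivirally expressed fusions sorted by FACS into six bins by GFP to DsRed ratio, PSI derived from sequencing read proportions per bin multiplied by bin number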
Lab note: compare protein stability index against 2. Equal or greater, write Satisfied. Smaller, write Not satisfied.

1) S11C Satisfied
2) E24W Satisfied
3) R21D Satisfied
4) G20T Not satisfied
5) L23W Satisfied
6) R21V Satisfied
7) L23S Satisfied
8) K17W Not satisfied
9) W14L Satisfied
10) K17P Not satisfied
11) V9P Satisfied
12) A6F Satisfied
13) F19A Satisfied
14) E8V Not satisfied
15) S7C Not satisfied
16) A12C Not satisfied
17) A12W Satisfied
18) V4W Satisfied

Reference source: the supplement of paper PMC10567573
